Reported T/C values for the following compounds.
System: L1210 leukemia ip in BDF1 mice, survival T/C
Assay: NCI In Vivo Anticancer Drug Screen. Data for tumor model L1210 Leukemia (intraperitoneal) in B6D2F1 (BDF1) mice
Conditions: endpoint: mean survival time; dose: 400.0 mg/kg/injection; schedule: Q01DX009 (ip); vehicle: saline; higher = longer survival
Toxic doses and inconclusive results are not listed.

*Q* Look up T/C: Cc1ccc(S(=O)(=O)NCCCCCC(=O)OCc2ccccc2)cc1
*A* 94 % of control

*Q* Item: COC1/C=C/OC2(C)Oc3c(C)c(O)c4c(O)c(c(/C=N/N(C)c5ncnc6c5ncn6C5OC(CO)C(O)C5O)c(O)c4c3C2=O)NC(=O)C(C)=C/C=C/C(C)C(O)C(C)C(O)C(C)C(OC(C)=O)C1C (stereo unspecified)
*A* 94 % of control

*Q* Item: CC1C[N+](C)(C)NC1=O (stereo unspecified)
*A* 91 % of control

*Q* Item: CC(C)NNC(=O)C(N)CCC(=O)O (stereo unspecified)
*A* 118 % of control

---

Tested on: L1210 leukemia ip in BDF1 mice, survival T/C
Assay: NCI In Vivo Anticancer Drug Screen. Data for tumor model L1210 Leukemia (intraperitoneal) in B6D2F1 (BDF1) mice
Conditions: endpoint: mean survival time; dose: 400.0 mg/kg/injection; schedule: Q01DX001 (ip); vehicle: carboxymethylcellulose (CMC); higher = longer survival
Toxic doses and inconclusive results are not listed.
Reported T/C values for the following compounds.

> print(dat)
                               query.smiles  value.kind      assay.value
1  CC(=O)Nc1ccc(C=Nc2c(N)n(C)c(=O)n(C)c2=O)cc1         T/C  90 % of control
2  Oc1ccc2ccccc2c1/C=N/N=c1\[nH][nH]/c(=N\N=C\c2c(O)ccc3ccccc23)c2ccccc12         T/C  87 % of control
3                    CCCCNC(=O)Nc1ccc(C)cc1         T/C  97 % of control
4          NC(=O)c1ccccc1NC(=O)Nc1ccc(F)cc1         T/C  93 % of control
5     CCCCC(=O)N/N=C\c1cccc([N+](=O)[O-])c1         T/C  95 % of control

*Q* Look up T/C: O=[N+]([O-])c1cccc([N+](=O)[O-])c1Cl
*A* 108 % of control

*Q* Item: O=C(OC(c1ccccc1)c1ccccc1)c1ccc([N+](=O)[O-])cc1
*A* 96 % of control

*Q* Item: ClCCN(CCCl)c1ccc(C=Nc2ccc(-c3csc(Cc4ccccc4)n3)c(Cl)c2)cc1
*A* 87 % of control

---

Reported T/C values for the following compounds.
Tested on: L1210 leukemia ip in BDF1 mice, survival T/C
Assay: NCI In Vivo Anticancer Drug Screen. Data for tumor model L1210 Leukemia (intraperitoneal) in B6D2F1 (BDF1) mice
Settings: endpoint: mean survival time; dose: 25.0 mg/kg/injection; schedule: Q01DX009 (ip); vehicle: saline with Tween-80; higher = longer survival
Toxic doses and inconclusive results are not listed.

> print(dat)
                                   compound       assay.value
1  CC(C)C1CCC(NC(=O)Nc2ccccc2)CC1 (stereo not drawn)   93 % of control
2         CN(/N=N/c1nc[nH]c1C(N)=O)C(C)(C)C   93 % of control
3  CC(=O)OCC(=O)[C@@]1(O)CC[C@H]2[C@@H]3CCC4=CC(=O)C=C[C@]4(C)[C@@]3(F)[C@@H](O)C[C@@]21C  101 % of control
4  CC(=O)Nc1ccc(/C=C/c2ccc3ccccc3[n+]2C)cc1   97 % of control
5  [Cl][Fe]([Cl])([Cl])[Cl].c1ccc(-c2cc(-c3ccccc3)[o+]c(-c3ccccc3)c2)cc1   87 % of control

*Q* Look up T/C: COc1ccc(/C=N/NC(=O)C[n+]2ccccc2)c(OC)c1
*A* 110 % of control

*Q* Item: CN(C)C1(Cc2ccccc2)c2ccccc2-c2ccc(Br)cc21 (stereo not drawn)
*A* 89 % of control

*Q* Item: CCS[P+](NC1CCCCC1)(NC1CCCCC1)NC1CCCCC1
*A* 94 % of control

---

System: L1210 leukemia ip in BDF1 mice, survival T/C
Assay: NCI In Vivo Anticancer Drug Screen. Data for tumor model L1210 Leukemia (intraperitoneal) in B6D2F1 (BDF1) mice
Details: endpoint: mean survival time; dose: 400.0 mg/kg/injection; schedule: Q01DX009 (ip); vehicle: saline with Tween-80; higher = longer survival
Inconclusive results and toxic doses are left out.
value_kind: T/C

> print(dat)
                                compound  value.kind      assay.value
1  Clc1ccccc1OCC1CO1 (centres undefined)         T/C  97 % of control

*Q* Look up T/C: CC(=O)N1C(=O)NC(=O)C1(C)c1ccc(Cl)s1 (centres undefined)
*A* 91 % of control

*Q* Item: Cc1cc(-c2nnc(-c3ccc(O)c(C)c3)nn2)ccc1O
*A* 91 % of control

*Q* Item: c1ccc2cc(Sc3ncnc4nc[nH]c34)ccc2c1
*A* 97 % of control

*Q* Item: NC(=S)N1N=C(c2cccc([N+](=O)[O-])c2)CCC1=O
*A* 101 % of control

*Q* Item: Cc1cccc(C)c1NC(=O)c1ccccc1Cl
*A* 104 % of control

*Q* Item: O=C(NC(Cc1ccccc1)C(=O)O)OCc1ccccc1 (centres undefined)
*A* 88 % of control

*Q* Item: O=C(O)c1cc(C(=O)O)cc(S(=O)(=O)F)c1
*A* 97 % of control

*Q* Item: OCC1OCOC2COCOC12 (centres undefined)
*A* 104 % of control

---

Reported T/C values for the following compounds.
Tested on: L1210 leukemia ip in BDF1 mice, survival T/C
Experiment: NCI In Vivo Anticancer Drug Screen. Data for tumor model L1210 Leukemia (intraperitoneal) in B6D2F1 (BDF1) mice
Settings: endpoint: mean survival time; dose: 25.0 mg/kg/injection; schedule: Q01DX001 (ip); vehicle: saline with Tween-80; higher = longer survival
Toxic doses and inconclusive results are not listed.

> print(dat)
                                   compound       assay.value
1  C=C1CCC(c2ccccc2)N(C)C1=O (centres undefined)  104 % of control
2  Nc1nc(=O)n(CCCOc2ccc([N+](=O)[O-])c(Cl)c2)cc1-c1ccc(Cl)c(Cl)c1   95 % of control
3        O=c1/c(=C/c2ccccc2)c2cccc3cccc1c32   97 % of control

*Q* Look up T/C: O=c1c(Br)c(-c2ccccc2)nc2ccccn12
*A* 91 % of control

---

Tested on: L1210 leukemia ip in BDF1 mice, survival T/C
Assay: NCI In Vivo Anticancer Drug Screen. Data for tumor model L1210 Leukemia (intraperitoneal) in B6D2F1 (BDF1) mice
Conditions: endpoint: mean survival time; dose: 400.0 mg/kg/injection; schedule: Q01DX001 (ip); vehicle: saline; higher = longer survival
Toxic doses and inconclusive results are not listed.
value_kind: T/C

Previously resolved entries follow.
molecule	T/C
C=CCCCCCCCCCC	96 % of control
Cl/C=C/CSc1ccccc1	100 % of control
N#CCCN/N=C\c1ccc2c(c1)OCO2	95 % of control
O=C(O)CNc1ccc(S(=O)(=O)c2ccc(NCC(=O)O)cc2)cc1	98 % of control
CC(C)(C)OC(=O)C(c1ccccc1)c1ccccc1	89 % of control
O=[N+]([O-])c1ccc(N/N=C\c2c(Cl)c(Cl)c(/C=N/Nc3ccc([N+](=O)[O-])cc3)c(Cl)c2Cl)cc1	94 % of control

*Q* Look up T/C: CC(=O)OCC1OC(n2ccc(NC(=S)Nc3ccn(C4OC(COC(C)=O)C(OC(C)=O)C4OC(C)=O)c(=O)n3)nc2=O)C(OC(C)=O)C1OC(C)=O (configuration not stated)
*A* 100 % of control

*Q* Item: COc1ccc(/C=C2\CS(=O)(=O)C/C(=C\c3ccc(OC)cc3)C2=O)cc1
*A* 95 % of control

*Q* Item: CS(=O)(=O)OCC1CCCO1 (configuration not stated)
*A* 101 % of control

---

Reported T/C values for the following compounds.
Tested on: L1210 leukemia ip in BDF1 mice, survival T/C
Assay: NCI In Vivo Anticancer Drug Screen. Data for tumor model L1210 Leukemia (intraperitoneal) in B6D2F1 (BDF1) mice
Details: endpoint: mean survival time; dose: 100.0 mg/kg/injection; schedule: Q04DX003 (ip); vehicle: Klucel (hydroxypropylcellulose) (HPC); higher = longer survival
Toxic doses and inconclusive results are not listed.

Previously resolved entries follow.
> print(dat)
                                   compound       assay.value
1       Cc1ccc(Nc2c3ccccc3nc3ccccc23)c(C)c1   96 % of control
2      Cn1nc2c(c1-c1ccc(O)cc1)CCCc1ccccc1-2  100 % of control
3  O=C(O)/C(=C\c1ccc([N+](=O)[O-])cc1)c1cccc(Cl)c1  106 % of control
4  C=CCOCC(O)CN(CC(C)C)CC(C)C (stereo unspecified)   95 % of control
5          Clc1ccccc1C=C1c2ccccc2-c2ccccc21  103 % of control

*Q* Look up T/C: CC(C)(NCc1ccccc1)C(=O)c1ccccc1
*A* 93 % of control
